- Tested on: Staphylococcus aureus (S. aureus FDA209P)
- procedureDetails: Sensitivity Test 1: antibacterial activity (MIC) by micro-dilution method
- Format: cell-based
- conditionInfo: FDA209P
Where a name gives a salt, the structure may show the parent alone.
measure: MIC (µg/mL)
Numbers only, in µg/mL.

{"compound": "COc1cc(CO)c2ccc(=O)n(CCN3CCC(NCc4ccc5c(c4)OCCO5)CC3)c2c1 [Example 189, hydrochloride]", "measure": "MIC", "unitsText": "µg/mL", "experimentalValue": 0.0625}
{"compound": "COc1cccc2ccc(=O)n(CCN3CCC(NCc4ccc5c(c4)OCCO5)CC3)c12 [Example 244, hydrochloride]", "measure": "MIC", "unitsText": "µg/mL", "experimentalValue": 0.0625}
{"compound": "O=c1cnc2ccc(F)cc2n1CCN1CCC(NCc2cc3c(cn2)OCCO3)CC1 [Example 352, hydrochloride]", "measure": "MIC", "unitsText": "µg/mL", "experimentalValue": 0.0156}

Could you report MIC for every entry in the following list?
1. COc1ccc2c(C)cc(=O)n(CCN3CCC(NCCSc4cccs4)CC3)c2c1 [Example 57, hydrochloride]
2. CNC(=O)c1cc(=O)n(CCN2CCC(NCc3cc4sccc4s3)CC2)c2cc(OC)ccc12 [Example 342, hydrochloride]
3. CNC(=O)c1cc(=O)n(CCN2CCC(NCc3ccc(C)c(F)c3)CC2)c2cc(OC)ccc12 [Example 340, hydrochloride]
4. Cc1cc(=O)n(CCN2CCC(NCc3ccc4c(c3)OCCO4)CC2)c2cc(OC3CC3)ccc12 [Example 129, hydrochloride]

# output
[0.0625, 0.0313, 0.0313, 0.0625]

Fill in MIC for each of the 2 compounds listed.
1. COc1ccc2ncc(=O)n(CCN3CCC(NCc4cc5ccccc5s4)CC3)c2c1 [Example 357, hydrochloride]
2. COc1ccc2ncc(=O)n(CCN3CCC(NCc4nc5c(cc4Cl)SCC(=O)N5)CC3)c2c1 [Example 355, hydrochloride]

# output
0.0156
0.0156

List the reported MIC of each compound below.
1. CCc1ccc(CNC2CCN(CCn3c(=O)cnc4ccc(F)cc43)CC2)cc1 [Example 347, hydrochloride]
2. COc1ccc2ncc(=O)n(CCN3CCC(NCc4cc5c(cn4)OCCCO5)CC3)c2c1 [Example 375, hydrochloride]
3. CCc1ccc(CNC2CCN(CCn3c(=O)cnc4ccc(OC)cc43)CC2)cc1 [Example 353, hydrochloride]
4. CNC(=O)c1cc(=O)n(CCN2CCC(NCc3cc(-c4cccs4)on3)CC2)c2cc(OC)ccc12 [Example 341, hydrochloride]
5. Cc1cc(=O)n(CCN2CCC(NCc3ccc4c(c3)OCCO4)CC2)c2cc(OC(F)F)ccc12 [Example 127, hydrochloride]

# output
1. 0.0156
2. 0.0156
3. 0.0156
4. 0.0313
5. 0.0625
